assay: Cytotoxicity against human HuH7 cells; type: cell-based, Huh-7
Let's look at some compounds and their measured CC50.
metricName: CC50 (µM)

>>> observedvalue("C[C@@]1(O)[C@H](O)[C@@H](CO)O[C@H]1c1cc(C(N)=O)c2c(N)ncnn12")
0.37
>>> observedvalue("C[C@@]1(O)[C@H](O)[C@@H](CO)O[C@H]1c1cc(Cl)c2c(N)ncnn12")
6.5
>>> observedvalue("C[C@@]1(O)[C@H](O)[C@@H](CO)O[C@H]1c1cnc2c(N)ncnn12")
26

---

assay: Therapeutic index, ratio of CC50 for human HuH7 cells to EC50 for Hepatitis C virus genotype 1b in human HuH7 cells; type: cell-based, Huh-7; settings: read-out: Ratio CC50/EC50
metricName: selectivity ratio

>>> observedvalue("C[C@@]1(O)[C@H](O)[C@@H](CO)O[C@H]1c1cc(F)c2c(N)ncnn12")
"> 30"

---

system: Hepatitis C virus; assay: Antiviral activity against Hepatitis C virus genotype 1b in human HuH7 cells assessed as inhibition of viral replication after 72 hrs by luciferase reporter assay; type: functional, cell-based, Hepacivirus hominis; conditions: Huh-7, 72 h
metricName: EC50 (µM)

>>> observedvalue("C[C@@]1(O)[C@H](O)[C@@H](CO)O[C@H]1c1cc(-c2ncc[nH]2)c2c(N)ncnn12")
0.69
>>> observedvalue("C[C@@]1(O)[C@H](O)[C@@H](CO)O[C@H]1c1cc(C(N)=O)c2c(N)ncnn12")
0.0062

---

assay: Cytotoxicity against human HuH7 cells; format: cell-based, Huh-7
metricName: CC50

>>> observedvalue("C[C@@]1(O)[C@H](O)[C@@H](CO)O[C@H]1c1cnc2c(N)nc(F)nn12")
"> 100 µM"
>>> observedvalue("C[C@@]1(O)[C@H](O)[C@@H](CO)O[C@H]1c1ccc2c(N)ncnn12")
"> 100 µM"
>>> observedvalue("C[C@@]1(O)[C@H](O)[C@@H](CO)O[C@H]1c1cc(-c2ncc[nH]2)c2c(N)ncnn12")
"27.1 µM"
>>> observedvalue("C[C@@]1(O)[C@H](O)[C@@H](CO)O[C@H]1c1cc(-c2ncco2)c2c(N)ncnn12")
"35.7 µM"
>>> observedvalue("C[C@@]1(O)[C@H](O)[C@@H](CO)O[C@H]1c1ccc2c(N)nc(N)nn12")
"> 100 µM"
>>> observedvalue("C[C@@]1(O)[C@H](O)[C@@H](CO)O[C@H]1c1c(F)cc2c(N)ncnn12")
"> 100 µM"
>>> observedvalue("C#Cc1cc([C@@H]2O[C@H](CO)[C@@H](O)[C@@]2(C)O)n2ncnc(N)c12")
"0.93 µM"
>>> observedvalue("C[C@@]1(O)[C@H](O)[C@@H](CO)O[C@H]1c1cc(C#N)c2c(N)ncnn12")
"22.1 µM"
>>> observedvalue("C[C@@]1(O)[C@H](O)[C@@H](CO)O[C@H]1c1cnc2c(N)nc(Cl)nn12")
"> 100 µM"
